Target: recombinant PI3K δ enzyme (Homo sapiens (Human))
Experiment: In vitro enzyme assay (Kinase-Glo luminescent kinase assay), PI3Kδ
Assay type: biochemical
Description: The Kinase-Glo luminescent kinase assay kit (from Promega) was used to measure kinase activity. In this assay, amount of ATP remaining in solution following a kinase reaction is measured. […] At the end of incubation period the equal volume of Kinase-Glo plus (Promega, V3772), was added per well and the luminescence was measured after incubating for 10 minutes at room temperature in dark. Results were calculated by measuring the luminescence units of test samples to blanks containing no enzyme. […]
pIC50: −log10 of the molar value.
Here the recorded pIC50 is given for each entry.

# compound, pIC50
records = [
    ("Cn1cc(-c2cc(N3CCOCC3)c3nc(C(=O)N4CCC(N5CCOCC5)CC4)[nH]c3n2)cn1 [compound 102]", 7.72),
    ("Cn1cc(-c2cc(N3CCOCC3)c3nc(C(=O)N4CC(N5CCNC(=O)C5)C4)[nH]c3n2)cn1 [Compound No. 128]", 7.72),
    ("CN1CCCC1CCNC(=O)c1nc2c(N3CCOCC3)nc(-c3cnn(C)c3)nc2[nH]1 (stereo not drawn) [compound 64]", 7.77),
    ("Cn1cc(-c2nc(N3CCOCC3)c3nc(C(=O)N4CCCCC4)[nH]c3n2)cn1 [compound 53]", 7.06),
    ("CN(C)C1CCN(C(=O)c2nc3c(N4CCOCC4)cc(-c4cnn(C)c4)nc3[nH]2)CC1 [compound 101]", 7.39),
    ("Cn1cc(-c2nc(N3CCOCC3)c3nc(C(=O)N4CCC5(CC4)COC5)[nH]c3n2)cn1 [compound 3]", 7.82),
]

----------
Target: recombinant PI3K δ enzyme (Homo sapiens (Human), UniProt O00329)
Sequence (O00329 whole entry, species assumed): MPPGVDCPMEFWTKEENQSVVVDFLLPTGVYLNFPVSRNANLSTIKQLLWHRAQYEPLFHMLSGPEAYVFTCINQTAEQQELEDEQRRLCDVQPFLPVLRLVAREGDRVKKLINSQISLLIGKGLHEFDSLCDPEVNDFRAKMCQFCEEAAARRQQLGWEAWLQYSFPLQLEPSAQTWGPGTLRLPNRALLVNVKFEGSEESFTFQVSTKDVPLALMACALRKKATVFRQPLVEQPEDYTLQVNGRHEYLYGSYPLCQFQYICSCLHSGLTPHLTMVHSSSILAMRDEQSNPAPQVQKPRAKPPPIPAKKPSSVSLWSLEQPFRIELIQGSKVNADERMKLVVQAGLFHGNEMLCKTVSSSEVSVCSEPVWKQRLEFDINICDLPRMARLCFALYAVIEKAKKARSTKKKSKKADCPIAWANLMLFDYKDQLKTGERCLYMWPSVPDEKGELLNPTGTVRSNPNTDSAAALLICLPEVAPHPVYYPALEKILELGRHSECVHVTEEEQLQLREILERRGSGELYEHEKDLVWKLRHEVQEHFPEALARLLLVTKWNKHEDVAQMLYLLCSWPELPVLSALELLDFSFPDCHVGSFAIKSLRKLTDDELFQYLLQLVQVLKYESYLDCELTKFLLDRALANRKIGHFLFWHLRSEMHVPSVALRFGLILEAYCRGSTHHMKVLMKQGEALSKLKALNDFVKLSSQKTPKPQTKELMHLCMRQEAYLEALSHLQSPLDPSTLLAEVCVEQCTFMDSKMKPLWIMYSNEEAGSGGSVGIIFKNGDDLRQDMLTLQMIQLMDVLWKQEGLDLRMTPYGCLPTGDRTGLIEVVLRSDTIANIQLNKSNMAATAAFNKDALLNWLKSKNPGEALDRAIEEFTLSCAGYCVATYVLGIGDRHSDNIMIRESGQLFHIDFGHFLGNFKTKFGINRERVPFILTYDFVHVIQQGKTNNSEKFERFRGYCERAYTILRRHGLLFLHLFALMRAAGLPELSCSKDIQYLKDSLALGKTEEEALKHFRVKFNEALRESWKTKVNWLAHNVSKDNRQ
Sequence (P27986 whole entry partner, species assumed): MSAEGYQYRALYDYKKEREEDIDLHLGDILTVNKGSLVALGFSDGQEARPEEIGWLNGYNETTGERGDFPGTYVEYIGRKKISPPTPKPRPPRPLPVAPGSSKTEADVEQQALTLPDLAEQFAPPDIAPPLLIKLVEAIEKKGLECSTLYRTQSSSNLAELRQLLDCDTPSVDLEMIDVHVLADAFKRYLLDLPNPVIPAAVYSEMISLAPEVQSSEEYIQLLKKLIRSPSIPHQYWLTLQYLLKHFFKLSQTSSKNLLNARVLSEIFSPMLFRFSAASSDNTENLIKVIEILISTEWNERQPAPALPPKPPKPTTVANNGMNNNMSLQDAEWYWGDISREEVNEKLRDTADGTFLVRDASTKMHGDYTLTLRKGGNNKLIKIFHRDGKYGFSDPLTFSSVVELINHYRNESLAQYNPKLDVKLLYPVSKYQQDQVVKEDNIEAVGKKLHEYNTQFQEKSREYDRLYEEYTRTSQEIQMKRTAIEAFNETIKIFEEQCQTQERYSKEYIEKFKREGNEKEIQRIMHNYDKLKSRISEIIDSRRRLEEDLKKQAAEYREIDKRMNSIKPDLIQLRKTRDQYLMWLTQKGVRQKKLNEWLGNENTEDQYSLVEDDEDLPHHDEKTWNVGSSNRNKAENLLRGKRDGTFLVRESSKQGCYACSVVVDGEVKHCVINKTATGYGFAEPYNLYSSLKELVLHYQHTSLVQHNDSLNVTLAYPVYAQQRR
Experiment: In vitro enzyme assay (Kinase-Glo luminescent kinase assay), PI3Kδ
Type: biochemical

# chemSmiles, IC50
data = [
    ("Cn1cc(-c2nc(N3CCOCC3)c3nc(C(=O)N4CCC(C(C)(C)O)CC4)[nH]c3n2)cn1", "16 nM"),
    ("Cc1nn(C)cc1-c1nc2c(nc(C(=O)N3CCC(N4CCOCC4)CC3)n2C)c(N2CCOCC2)c1F", "3 nM"),
    ("Cn1cc(-c2cc(N3CCOCC3)c3nc(C(=O)N4CCC(N5CCOCC5)CC4)n(C)c3n2)cn1", "30 nM"),
]

----------
Target: recombinant PI3K δ enzyme (Homo sapiens (Human))
Assay: In vitro enzyme assay (Kinase-Glo luminescent kinase assay), PI3Kδ
Format: biochemical
Settings: enzyme 2.29 μg/mL; ATP 10 μM; PIP2 60 μM; 2 hours

# molecule, IC50
measured = [
    ("Cc1nn(C)cc1-c1nc2[nH]c(C(=O)N3CCC(C(N)=O)CC3)nc2c(N2CCOCC2)c1F [compound 85]", "19 nM"),
    ("Cn1cc(-c2nc3[nH]c(C(=O)N4CCC5(CC4)COC5)nc3c(N3CCOCC3)c2F)cn1 [compound 79]", "20 nM"),
    ("O=C(c1nc2c(N3CCOCC3)nc(-c3cn[nH]c3)nc2[nH]1)N1CCC2(CC1)COC2 [compound 72]", "18 nM"),
    ("Cn1cc(-c2nc3[nH]c(C(=O)N4CCN(C(C)(C)C(N)=O)CC4)nc3c(N3CCOCC3)c2F)cn1 [compound 82]", "11 nM"),
    ("Cn1cc(-c2nc(N3CCOCC3)c3nc(C(=O)N4CCC(C(C)(C)O)CC4)[nH]c3n2)cn1 [compound 14]", "16 nM"),
]
